System: hGIPR (Homo sapiens, UniProt P48546)
Sequence (P48546 22-466): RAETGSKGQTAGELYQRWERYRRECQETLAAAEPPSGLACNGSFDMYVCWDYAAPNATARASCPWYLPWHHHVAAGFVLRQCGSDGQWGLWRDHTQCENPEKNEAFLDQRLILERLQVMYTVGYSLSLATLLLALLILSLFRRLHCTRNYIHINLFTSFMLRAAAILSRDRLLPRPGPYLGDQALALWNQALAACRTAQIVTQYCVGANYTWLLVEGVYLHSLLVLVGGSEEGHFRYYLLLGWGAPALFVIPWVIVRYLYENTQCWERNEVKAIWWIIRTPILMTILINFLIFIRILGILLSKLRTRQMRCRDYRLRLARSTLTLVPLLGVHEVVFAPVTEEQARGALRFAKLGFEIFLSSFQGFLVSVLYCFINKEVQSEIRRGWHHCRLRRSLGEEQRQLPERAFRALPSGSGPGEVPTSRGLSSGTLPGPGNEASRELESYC
Protocol description: Functional cAMP activity in the presence of 1% HSA
Assay type: cell-based
Condition description: read-out: cAMP Rel EC50, hGIPR
Starred links: 1 amine or outer side, 2 acyl side, 3 side chain; linkers in the order of their positions; H or OH if unused. Non-standard residues stand in square brackets, D forms with d. Groups on a side chain read outwards from the residue. No end group written: not given here. *: point of attachment. C20 diacid = O=C(O)CCCCCCCCCCCCCCCCCCC(=O)*; C18 diacid = O=C(O)CCCCCCCCCCCCCCCCC(=O)*; αMePhe(2-F) = C[C@](N)(Cc1ccccc1F)C(=O)O; γGlu = O=C(O)[C@H](CCC(=O)[*:2])N[*:1]; αMe4Pal = C[C@](N)(Cc1ccncc1)C(=O)O; αMeY = C[C@](N)(Cc1ccc(O)cc1)C(=O)O; 4Pal = N[C@@H](Cc1ccncc1)C(=O)O; αMeL = CC(C)C[C@](C)(N)C(=O)O; αMeS = C[C@](N)(CO)C(=O)O; Orn = NCCC[C@H](N)C(=O)O; AEEA = NCCOCCOCC(=O)O; Aib = CC(C)(N)C(=O)O
Checkbox rule: EC50 lower than 6 nM = criterion met; EC50 not lower than 6 nM = criterion not met.

Asked: Lab note: confirm whether the reported EC50 for this substance is below 6 nM, equality not counting. substance: H-Y[Aib]QGT[αMePhe(2-F)]TSD[4Pal][αMeS]I[αMeL]LD[Orn]K([γGlu-γGlu-C18 diacid])AQ[Aib][Orn]FI[dE][αMeY]LQEGGPSSGEPPPSGTEEE-NH2 [Example 573]
Given back: criterion met

Asked: What about this substance? Y[Aib]QGTFTSDYSI[αMeL]LDKQAAK([AEEA-AEEA-γGlu-C20 diacid])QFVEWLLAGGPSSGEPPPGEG-NH2 [Example 320]
Given back: criterion not met

Asked: What about this substance? H-Y[Aib]QGT[αMePhe(2-F)]TSD[4Pal][αMeS]I[αMeL]LD[Orn]K([AEEA-γGlu-C18 diacid])AA[Aib]EFI[dE][αMeY]LIEGGPSSGAPPPSG[dE]-NH2 [Example 721]
Given back: criterion met

Asked: What about this substance? Y[Aib]QGT[αMePhe(2-F)]TSD[4Pal][αMeS]I[αMeL]LD[Orn][Orn]([AEEA-γGlu-C18 diacid])AQ[αMe4Pal]EFI[dE][αMeY]LVEGGPSSGAPPPSGS-NH2 [Example 1210]
Given back: criterion met

Asked: What about this substance? H-Y[Aib]QGTFTSDFS[Orn][αMeL]LDKK([γGlu-AEEA-γGlu-C18 diacid])AQ[Aib]AFIEYLLE[Aib]GPSSGAPPPSGT-NH2 [Example 276]
Given back: criterion not met

Asked: What about this substance? H-Y[Aib]QGTFTSDFSK[αMeL]LDKK([AEEA-γGlu-C20 diacid])AQ[Aib]AFIEWLLEGGPSSGAPPPSEG-NH2 [Example 37]
Given back: criterion not met

Asked: What about this substance? Y[Aib]QGT[αMePhe(2-F)]TSD[4Pal][αMeS]I[αMeL]LD[Orn]K([γGlu-γGlu-C18 diacid])AQ[Aib][Orn]FI[dE][αMeY]LQEGGPSSGEPPPEGAEE-NH2 [Example 587]
Given back: criterion met

Asked: What about this substance? H-Y[Aib]QGT[αMePhe(2-F)]TSD[4Pal][αMeS]I[αMeL]LD[Orn]K([γGlu-γGlu-C18 diacid])AQ[Aib][Orn]FI[dE][αMeY]LTEGGPSSGEPPPSGTGE-NH2 [Example 543]
Given back: criterion met

Asked: What about this substance? H-Y[Aib]QGT[αMePhe(2-F)]TSD[4Pal][αMeS]I[αMeL]LD[Orn]K([AEEA-γGlu-C18 diacid])AQ[αMe4Pal]EFI[dE][αMeY]LVEGGPSSGAPPPTGE-NH2 [Example 1152]
Given back: criterion met

Asked: What about this substance? Y[Aib]Q[dA]T[αMePhe(2-F)]TSD[4Pal][αMeS]I[αMeL]LD[Orn]K([AEEA-γGlu-C18 diacid])AQ[Aib]EFI[dE][αMeY]LIEGGPSSGAPPPSGS-NH2 [Example 1203]
Given back: criterion not met
